Exercise: for every item that follows, state its recorded IC50.
system tested: UniProt P49841
Sequence (P49841 whole entry, species assumed): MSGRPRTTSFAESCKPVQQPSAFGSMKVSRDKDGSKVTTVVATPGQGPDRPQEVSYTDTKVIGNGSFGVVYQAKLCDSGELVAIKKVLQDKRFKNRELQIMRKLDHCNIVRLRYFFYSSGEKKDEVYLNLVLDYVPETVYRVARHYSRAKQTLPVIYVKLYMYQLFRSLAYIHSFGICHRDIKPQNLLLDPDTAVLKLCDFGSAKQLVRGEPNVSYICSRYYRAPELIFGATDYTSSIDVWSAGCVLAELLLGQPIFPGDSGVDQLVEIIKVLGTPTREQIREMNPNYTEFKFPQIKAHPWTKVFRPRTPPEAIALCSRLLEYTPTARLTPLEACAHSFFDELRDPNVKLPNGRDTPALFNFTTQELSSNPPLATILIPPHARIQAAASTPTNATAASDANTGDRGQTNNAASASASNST
assay method text: GSK3beta assay (SPA, biotinylated phosphorylated CREB peptide, ATP-P33)
Assay type: biochemical
measurement context: ranges of pIC50 (−log IC50 (M)); 1 μM ATP, room temperature, one hour; read-out: GSK3b pIC50 (converted)

Documented IC50 of OCCc1cccc(-n2nnc3cnc(Nc4ccc(CN5CCC(O)CC5)cc4)nc32)c1 [Compound 79] : < 1e-08 M

Documented IC50 of CCOC(=O)NCc1cccc(-n2nnc3cnc(Nc4cccc(-c5cnco5)c4)nc32)c1 [Compound 125] : < 1e-08 M

Documented IC50 of CN1CCN(CCOc2ccc(Nc3ncc4nnn(-c5cccc(CC#N)c5)c4n3)cc2)CC1 [Compound 93] : 1e-08 to 1e-07 M

Documented IC50 of CN1CCN(CCCOc2ccc(Nc3ncc4nnn(-c5cccc(CC#N)c5)c4n3)cc2)CC1 [Compound 94] : < 1e-08 M

Documented IC50 of CN1CCN(CCCOc2ccc(Nc3ncc4nnn(-c5cccc(F)c5)c4n3)cc2)CC1 [Compound 143] : 1e-08 to 1e-07 M

Documented IC50 of COc1cccc(-n2nnc3cnc(Nc4cccc(-c5nccn5C)c4)nc32)c1 [Compound 17] : < 1e-08 M

Documented IC50 of Fc1cccc(-n2nnc3cnc(Nc4ccc(-c5cnco5)cc4)nc32)c1 [Compound 38] : 1e-08 to 1e-07 M

Documented IC50 of Fc1cccc(-n2nnc3cnc(Nc4ccc(OCCCN5CCOCC5)cc4)nc32)c1 [Compound 144] : 1e-08 to 1e-07 M

Documented IC50 of CN1CCN(CCCOc2ccc(Nc3ncc4nnn(-c5cccc(CCO)c5)c4n3)cc2)CC1 [Compound 83] : < 1e-08 M

Documented IC50 of CC(=O)NCc1cccc(-n2nnc3cnc(Nc4cccc(-c5cnco5)c4)nc32)c1 [Compound 115] : < 1e-08 M

Documented IC50 of Brc1cccc(-n2nnc3cnc(Nc4ccc(-c5nnn[nH]5)cc4)nc32)c1 [Compound 52] : < 1e-08 M

Documented IC50 of Cn1nnnc1-c1cccc(Nc2ncc3nnn(-c4ccccc4)c3n2)c1 [Compound 74] : < 1e-08 M

Documented IC50 of c1ccc(-n2nnc3cnc(Nc4ccc(N5CCOCC5)cc4)nc32)cc1 [Compound 11] : 1e-08 to 1e-07 M

Documented IC50 of OCCc1ccc(-n2nnc3cnc(Nc4ccc(N5CCOCC5)cc4)nc32)cc1 [Compound 85] : > 1e-07 M

Documented IC50 of Cc1nccc(-c2cccc(Nc3ncc4nnn(-c5cccc(F)c5)c4n3)c2)n1 [Compound 32] : < 1e-08 M

Documented IC50 of COCc1cccc(-n2nnc3cnc(Nc4cccc(-c5nnnn5C)c4)nc32)c1 [Compound 99] : < 1e-08 M

Documented IC50 of CSc1ccc(-n2nnc3cnc(Nc4cccc(-c5nccn5C)c4)nc32)cc1 [Compound 55] : 1e-08 to 1e-07 M

These measurements were taken from patent US7449465B2.
